- Tested on: human chronic myeloid leukemia cells K-562 (DSM ACC 10)
- protocol-description: Growth inhibition (antiproliferative effect) of K-562
- Format: cell-based
- protocol-conditions: Homo sapiens, K562; read-out: antiproliferative GI50, K-562
parameter: GI50 (µM)

P: COC1[C@@H](O)C(C)O[C@H](OC2[C@H](Oc3cccc4c(O)c5c(=O)oc6cccc7c(=O)oc(c34)c5c67)OC(C)[C@H](O)[C@@H]2O)[C@@H]1O (some centres unmarked)
Q: COC1[C@@H](O)C(C)O[C@H](OC2[C@H](Oc3cccc4c(O)c5c(=O)oc6cc(C)cc7c(=O)oc(c34)c5c67)OC(C)[C@H](O)[C@@H]2O)[C@@H]1O (some centres unmarked)
R: COC1[C@@H](O)C(C)O[C@H](OC2[C@H](Oc3cccc4c(O)c5c(=O)oc6cc(Br)cc7c(=O)oc(c34)c5c67)OC(C)[C@H](O)[C@@H]2O)[C@@H]1O (some centres unmarked)
Thanks in advance: please rank these 3 entries by GI50, highest to lowest. Form entry: ranked labels (order as requested). P, R, Q
